biological target: IL-1β (UniProt P01584 117-269); test: Biacore, Fab periplasmic extract on IL-1β

| BINDER | binding result |
| --- | --- |
| XPA23 light chain P95T (Fab, V domains shown, Single light chain substitution; Fab in periplasmic extract; also called C5A (XPA23) P95T) VH: EVQLLESGGGLVQPGGSLRLSCAASGFTFSKYFMFWVRQAPGKGLEWVSVISPSGGMTRYADSVKGRFTISRDNSKNTLYLQMNSLRAEDTAVYYCARVGYGGNSDYWGQGTLVTVSS VL: DIQMTQSPSSVSASVGDRLTIICRASQDINRWLAWYQQTPGNAPKLLIHSATSLQSGVPSRFSGSGSGTDFTLTINSLQPEDFATYYCQQADSFTLTFGGGTKVEIK | no binding |
| XPA23 light chain F94G (Fab, V domains shown, Single light chain substitution; Fab in periplasmic extract; also called C5A (XPA23) F94G) VH: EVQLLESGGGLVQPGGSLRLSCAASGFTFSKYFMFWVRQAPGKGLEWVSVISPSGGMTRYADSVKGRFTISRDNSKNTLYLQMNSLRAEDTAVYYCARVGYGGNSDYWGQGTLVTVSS VL: DIQMTQSPSSVSASVGDRLTIICRASQDINRWLAWYQQTPGNAPKLLIHSATSLQSGVPSRFSGSGSGTDFTLTINSLQPEDFATYYCQQADSGPLTFGGGTKVEIK | no binding |
